- target.entity: JNK1α1 (Homo sapiens, UniProt P45983)
- Construct: catalytic domain containing amino acids 1-364 and N-terminal hexahistidine tag; hexahistidine (His6) (N); made in house; host or cells: E. coli BL21 (DE3)
- Sequence (P45983 1-364): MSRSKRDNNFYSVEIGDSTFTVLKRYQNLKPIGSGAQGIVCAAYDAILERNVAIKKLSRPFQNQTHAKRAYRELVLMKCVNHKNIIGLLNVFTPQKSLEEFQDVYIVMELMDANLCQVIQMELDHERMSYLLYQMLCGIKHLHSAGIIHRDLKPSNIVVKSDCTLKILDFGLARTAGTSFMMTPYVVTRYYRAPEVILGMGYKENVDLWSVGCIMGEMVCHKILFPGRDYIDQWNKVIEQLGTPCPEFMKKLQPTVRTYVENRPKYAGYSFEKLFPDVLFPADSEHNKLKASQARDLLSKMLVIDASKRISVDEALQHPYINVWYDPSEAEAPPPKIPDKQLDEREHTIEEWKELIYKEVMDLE
- procedure.text: Coupled spectrophotometric (PK/LDH) JNK1α1 assay: % inhibition and Ki determination
- Assay type: biochemical
- assay.context: @10 uM; read-out: % Inhibition JNK-1
assay.readout: inhibition at 10 µM (%)

>>> df
                                   compound                          target_entity  number
0  O=C(NCC1CN(C2CCC2)C(=O)CO1)c1cccc2cnc(N[C@H]3CC[C@H](O)CC3)nc12 (some centres unmarked)  JNK1α1 (Homo sapiens, UniProt P45983)      41

A = N#Cc1cccc(CNc2cc3cc(-c4cn[nH]c4)ccc3cn2)c1
B = Cc1cccnc1CC(C)NC(=O)c1cccc2cnc(N[C@H]3CC[C@H](O)CC3)nc12 (some centres unmarked)
C = CC(C)Oc1ccc(CNc2cc3cc(-c4cn[nH]c4)ccc3cn2)cc1CO
(Q) Order by inhibition at 10 µM, ascending. Dear reader, please state the labels in the requested order.
(A) C, A, B
